# Normal melting temperature per record follows
# condition: Crystal; DTA
± gives the expanded uncertainty stated by the source.
Answers without a unit are incomplete; give the number and then its unit.

Sample records with Normal melting temperature:
compound	Normal melting temperature
[F-].[F-].[F-].[K+].[Ni+2] [nickel potassium fluoride (KNiF3)]	1120 ± 20 °C
[F-].[Li+] [lithium fluoride]	845 ± 10 °C

Ask: What measured Normal melting temperature goes with [F][Ni][F] [nickel difluoride] ?
Result: 1356 ± 10 °C

Ask: And then [F-].[K+] [potassium fluoride] , what is it?
Result: 856 ± 10 °C

Measured values drawn from the NIST ThermoML archive (doi:10.1016/j.jct.2018.01.023) for this set.
